test_method_notes: In vitro anticholinesterase activity against butyrylcholinesterase from torpedo californica
Below, each entry is listed alongside its reported pIC50.
Note on units: pIC50 is unitless, being -log10 of a concentration expressed in mol/L.

- molecule_smiles: "C[C@@H]([C@H]1CC[C@H]2[C@@H]3CC[C@H]4C(=O)C(NC(=O)c5ccccc5)=CC[C@]4(C)[C@H]3CC[C@]12C)N(C)C"
  observed_value: 5.60
- molecule_smiles: "CC(=O)O[C@H]1[C@@H](NC(=O)C=C(C)C)CC[C@]2(C)[C@H]3CC[C@]4(C)[C@@H]([C@H](C)N(C)C)CC[C@H]4[C@@H]3CC[C@@H]12"
  observed_value: 5.64

Next up:
C/C(=C\C(=O)N[C@H]1CC[C@@]2(C)[C@@H](CC[C@@H]3[C@@H]2CC[C@]2(C)[C@@H]([C@H](C)N(C)C)CC[C@@H]32)C1)C(C)C yielded pIC50 of 5.33
